Hello, the source for this data is paper PMC5970223, in case you need it.

Target: HTR2A serotonin receptor (Homo sapiens, UniProt P28223)
Sequence (P28223 81-471 limits assumed): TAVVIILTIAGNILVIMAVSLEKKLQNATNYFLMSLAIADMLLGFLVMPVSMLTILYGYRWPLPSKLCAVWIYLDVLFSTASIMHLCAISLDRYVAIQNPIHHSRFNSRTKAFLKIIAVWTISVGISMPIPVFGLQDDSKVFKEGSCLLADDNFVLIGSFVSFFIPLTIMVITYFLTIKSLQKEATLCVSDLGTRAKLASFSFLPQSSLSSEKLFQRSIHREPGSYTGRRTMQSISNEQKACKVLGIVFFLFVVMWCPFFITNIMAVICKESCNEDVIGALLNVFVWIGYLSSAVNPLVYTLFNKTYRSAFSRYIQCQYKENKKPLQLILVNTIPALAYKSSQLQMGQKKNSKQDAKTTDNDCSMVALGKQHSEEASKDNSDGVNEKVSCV
Assay: single GPCR split TEV assay, luciferase readout (β-arrestin2 recruitment)
Details: standard single luciferase GPCR split TEV assay, validation (Fig. 4f); read-out: IC50 of HTR2A receptor inhibition
pIC50: −log10 of the molar value.
assay metric: pIC50

molecule: Cc1nc2n(c(=O)c1CCN1CCC(c3noc4cc(F)ccc34)CC1)CCCC2O (stereo not shown) [Paliperidone]
subject of test: HTR2A serotonin receptor (Homo sapiens, UniProt P28223)
assay metric: pIC50
readout number: 8.44

* * *

Target: dopamine receptor DRD2 (Homo sapiens, UniProt P14416)
Sequence (P14416 1-414 isoform P14416-2): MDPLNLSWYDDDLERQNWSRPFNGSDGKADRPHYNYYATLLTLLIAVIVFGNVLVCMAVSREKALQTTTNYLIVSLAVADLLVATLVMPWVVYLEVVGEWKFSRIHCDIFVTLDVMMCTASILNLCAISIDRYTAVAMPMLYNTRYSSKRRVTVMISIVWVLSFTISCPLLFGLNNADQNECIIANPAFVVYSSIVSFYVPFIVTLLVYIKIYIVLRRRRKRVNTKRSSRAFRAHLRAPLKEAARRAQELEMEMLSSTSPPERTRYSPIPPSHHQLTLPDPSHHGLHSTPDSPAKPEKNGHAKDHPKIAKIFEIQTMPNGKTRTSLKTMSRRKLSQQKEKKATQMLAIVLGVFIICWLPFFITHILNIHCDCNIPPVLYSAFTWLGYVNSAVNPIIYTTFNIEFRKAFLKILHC
Assay: standard single luciferase GPCR split TEV assay
Settings: validation (Fig. 4e), read-out: IC50 of DRD2 receptor inhibition

compound: Cc1nc2n(c(=O)c1CCN1CCC(c3noc4cc(F)ccc34)CC1)CCCC2O (stereo not shown)
IC50: 188 nM
